Reference for the values: patent US20090022728A1

Measured koff, listed per entry for reference.
Molecular target: T1, biotinylated Aβ1-40 peptide (biotinylated (N-biotinylated in Example 7))
T1 construct: captured on streptavidin (SA) chip; also called Biotinylated Aβ peptide 1-40; Aβ1-40 on SA chip
T1 sequence (peptide, as listed by the source): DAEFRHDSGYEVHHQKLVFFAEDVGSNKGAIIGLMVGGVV
Assay: SPR, Fab over Aβ1-40 on SA chip

binder	koff (s⁻¹)
9TL variant M47 Fab (Fab, V domains shown, Fab; human IgG2 CH1 and kappa CL) VH: QVQLVQSGAEVKKPGASVKVSCKASGYYTEAYYIHWVRQAPGQGLEWMGRIDPATGNTKYAPRLQDRVTMTRDTSTSTVYMELSSLRSEDTAVYYCASLYSLPQYWGQGTTVTVSS VL: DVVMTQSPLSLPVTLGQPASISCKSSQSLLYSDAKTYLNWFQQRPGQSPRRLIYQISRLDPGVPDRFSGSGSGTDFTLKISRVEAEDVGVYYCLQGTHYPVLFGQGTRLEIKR	0.02
9TL variant M36 Fab (Fab, V domains shown, Fab; human IgG2 CH1 and kappa CL) VH: QVQLVQSGAEVKKPGASVKVSCKASGYYTEAYYIHWVRQAPGQGLEWMGRIDPATGNTKYAPRLQDRVTMTRDTSTSTVYMELSSLRSEDTAVYYCASLYSRPVYWGQGTTVTVSS VL: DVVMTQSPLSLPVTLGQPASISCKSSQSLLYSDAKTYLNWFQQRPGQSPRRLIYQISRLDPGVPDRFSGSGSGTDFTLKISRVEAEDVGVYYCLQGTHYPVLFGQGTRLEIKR	0.0009
9TL Fab fragment (Fab, V domains shown, Fab from E. coli with human IgG2 CH1 (P01859) and human kappa constant domain (CAA09181)) VH: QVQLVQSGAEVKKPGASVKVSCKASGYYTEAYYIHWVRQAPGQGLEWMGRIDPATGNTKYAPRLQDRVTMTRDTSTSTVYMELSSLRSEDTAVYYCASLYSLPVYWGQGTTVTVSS VL: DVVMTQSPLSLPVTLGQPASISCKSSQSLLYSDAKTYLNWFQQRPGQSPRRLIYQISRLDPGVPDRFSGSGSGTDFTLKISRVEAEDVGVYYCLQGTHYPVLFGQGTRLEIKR	0.000359
